Tested on: L6-myotubes
Assay: Glucose uptake (3H-2-deoxyglucose) in differentiated L6-myotubes
Format: cell-based
Settings: compound 1×10^−5 M, read-out: Biological example 1: glucose uptake, activity compared to that of isoproterenol
Counter-ions that a name gives are not always drawn.
endpoint.name: Emax at 10 µM

Consider the following illustrative entries.
O[C@@H](c1cncc(F)c1)[C@H]1CC[C@@H](Cc2ccc(Cl)cc2)N1 [Example 30, dihydrochloride]
50 to 75%
CO[C@H]1CC[C@H](C[C@@]2(C)CC[C@H]([C@@H](O)c3cccc(F)c3)N2)CC1 [Example 18, hydrochloride]
50 to 75%

Shift focus to the following entry.
Lookup: Which measured Emax at 10 µM value corresponds to CC(=O)N(Cc1ccccc1)[C@H]1CC[C@H](C[C@@H]2CC[C@H]([C@H](O)c3cccc(F)c3)N2)CC1 [Example 41, hydrochloride] ?
Found: 25 to 50%
